molecular target: single-chain tethered dimer of HIV protease (Human immunodeficiency virus 1, UniProt P04585); experiment: biochemical; format: biochemical; set-up: fused on or other part: A second copy of the same protease unit is joined to the first by a short peptide tether, giving one polypeptide; details: read-out: HPLC K1; Table 2d; class symbols
recorded metric: Ki

Worked cases, Ki given:
O=C1N(CCCCC2CO2)C(Cc2ccccc2)C(O)C(O)C(Cc2ccccc2)N1CCCCC1CO1 (stereo not drawn) [Example 13E]: 10 to 1000 nM
C=CCCCCN1C(=O)N(CCCCC=C)C(Cc2ccccc2)C(O)C(O)C1Cc1ccccc1 (stereo not drawn) [Example 13D]: < 10 nM
O=C1N(Cc2ccc(CO)cc2)C(Cc2ccccc2)C(O)C(O)C(Cc2ccccc2)N1Cc1ccc(CO)cc1 (stereo not drawn) [Example 13S]: 10 to 1000 nM
O=C1N(Cc2cccc(O)c2)C(Cc2ccccc2)C(O)C(O)C(Cc2ccccc2)N1Cc1ccccn1 (stereo not drawn) [10Q]: 10 to 1000 nM
CC(=O)Oc1cccc(CN2C(=O)N(Cc3cccc(OC(C)=O)c3)C(Cc3ccccc3)C(O)C(O)C2Cc2ccccc2)c1 (stereo not drawn) [10F]: 10 to 1000 nM

For each listed entry, give its Ki.
1. COCCCCCN1C(=O)N(CCCCCO)C(Cc2ccccc2)C(O)C(O)C1Cc1ccccc1 (stereo not drawn) [Example 15VW]
2. O=C1N(CCCCC(O)CBr)C(Cc2ccccc2)C(O)C(O)C(Cc2ccccc2)N1CCCCC(O)CBr (stereo not drawn) [Example 13G]
3. CCOC(=O)c1ccc(CN2C(=O)N(Cc3ccc(C(=O)OCC)cc3)C(Cc3ccccc3)C(O)C(O)C2Cc2ccccc2)cc1 (stereo not drawn) [Example 11F]
4. O=C1N(Cc2ccccc2)C(Cc2ccccc2)C(O)C(O)C(Cc2ccccc2)N1CC1CC1CO (stereo not drawn) [Example 12M]

1: < 10 nM; 2: < 10 nM; 3: 10 to 1000 nM; 4: < 10 nM
